B1: library; numbered along this chain (parent)
chain: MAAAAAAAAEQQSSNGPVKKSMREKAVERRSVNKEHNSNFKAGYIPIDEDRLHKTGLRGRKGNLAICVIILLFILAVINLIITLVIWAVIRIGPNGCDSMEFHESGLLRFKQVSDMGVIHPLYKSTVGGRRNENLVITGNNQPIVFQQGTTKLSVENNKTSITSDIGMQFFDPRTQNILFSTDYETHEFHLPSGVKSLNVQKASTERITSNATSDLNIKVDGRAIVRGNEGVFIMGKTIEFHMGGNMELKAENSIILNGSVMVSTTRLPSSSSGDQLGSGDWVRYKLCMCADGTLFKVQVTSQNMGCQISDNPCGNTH

Variants of: B1
Test: SGCB cell-surface expression functional score (HA stain, bin4 vs bin1, normalised to synonymous) (log10 ratio); higher = more cell-surface SGCB (functional)
SGCB cell-surface expression functional score (log10) vs -0.1: at or above is MET, below is NOT MET.

variant_key | assigned_category
N316T | MET
Q276G | MET
Q276E | MET
T209F | NOT MET
E185R | NOT MET
S254W | MET
C67M | MET
T213V | NOT MET
K111D | NOT MET
Q308W | NOT MET

The reported measurements were obtained from the supplement of paper PMC10266784.
